PROCEDURE_SUMMARY: Mouse PK, IV and PO
CONDITION: in vivo, PO dose 30 mg/kg, 20% Captisol (aq), fed
// Cmax lookup, one value per entry
QUANTITY_MEASURED: Cmax (ng/mL)

1. Cc1cc([C@@H](C)Nc2ccc(Cl)nc2C(=O)O)c2nc(N3Cc4ccc(F)cc4C3)n(C)c(=O)c2c1 [Compound 1 acid derivative, reference compound] :: 2490
2. Cc1cc([C@@H](C)Nc2ccc(Cl)nc2C(=O)NS(C)(=O)=O)c2nc(N3Cc4ccc(F)cc4C3)n(C)c(=O)c2c1 :: 35500

====

Test system: SKBR3 (PI3Kα-Wild Type) cell line
PROCEDURE_SUMMARY: HTRF phospho-AKT(S473) cell assay in SKBR3 cells
Format: cell-based, human
CONDITION: Homo sapiens, SK-BR-3; HTRF phospho-AKT(S473), SKBR3 (PI3Kα-Wild Type) cells, 2 hours compound incubation, PDGF-BB stimulated
Protocol: Compounds in the present disclosure were tested in a cell based HTRF phospho-AKT(S473) (CisBio/Revvity) assay in human breast cancer cell lines as a measurement of PIK3CA activity through measuring AKT, a downstream effector. The activity of mutant PI3Kα-H1047R and PI3Kα-Wild Type was measured in the T47D (PI3Kα-H1047R) and SKBR3 (PI3Kα-Wild Type) cell lines, respectively. […] The following day, plates were centrifuged for 1 minute at 1000 rpm, and read on a PHERAstar plate reader. […]
QUANTITY_MEASURED: IC50

1) Cc1cc([C@@H](C)Nc2ccc(Cl)nc2C(=O)NS(C)(=O)=O)c2nc(-c3ccc(Oc4cnn(C)c4)nc3)n(C)c(=O)c2c1 :: 1 to 5 µM
2) Cc1cc([C@@H](C)Nc2ccc(Cl)nc2C(=O)NS(C)(=O)=O)c2nc(N3CC[C@H](Oc4cnc(C)nc4)C3)n(C)c(=O)c2c1 :: 1 to 5 µM
3) Cc1cc([C@@H](C)Nc2ccc(Cl)nc2C(=O)NS(C)(=O)=O)c2nc(N3CCN(c4cc(C)n(C)n4)CC3)n(C)c(=O)c2c1 :: ≥ 5 µM

====

Each record here notes measured IC50.
Test system: SKBR3 (PI3Kα-Wild Type) cell line
PROCEDURE_SUMMARY: HTRF phospho-AKT(S473) cell assay in SKBR3 cells
Format: cell-based, human
CONDITION: Homo sapiens, SK-BR-3; HTRF phospho-AKT(S473), SKBR3 (PI3Kα-Wild Type) cells, 2 hours compound incubation, PDGF-BB stimulated
QUANTITY_MEASURED: IC50

1. Cc1cc([C@@H](C)Nc2ccc(Cl)nc2C(=O)NS(C)(=O)=O)c2nc([C@H]3[C@@H]4CN(c5nccc(C)n5)C[C@@H]43)n(C)c(=O)c2c1 :: ≥ 5 µM
2. CCn1c(N2C[C@@H]3[C@H](C2)[C@H]3c2cnc(C)cn2)nc2c([C@@H](C)Nc3ccc(Cl)nc3C(=O)NS(C)(=O)=O)cc(C)cc2c1=O :: 1 to 5 µM
3. Cc1cc([C@@H](C)Nc2ccc(Cl)nc2C(=O)NS(C)(=O)=O)c2nc(N3C[C@@H]4C[C@H]3CN4c3ncc(Cl)cn3)n(C)c(=O)c2c1 :: ≥ 5 µM

====

Tested on: SKBR3 (PI3Kα-Wild Type) cell line
PROCEDURE_SUMMARY: HTRF phospho-AKT(S473) cell assay in SKBR3 cells
Type: cell-based, human
CONDITION: HTRF phospho-AKT(S473), SKBR3 (PI3Kα-Wild Type) cells, 2 hours compound incubation, PDGF-BB stimulated
QUANTITY_MEASURED: IC50

1. Cc1cc([C@@H](C)Nc2ccc(Cl)nc2C(=O)NS(C)(=O)=O)c2nc(N3CCCC(c4ncc(Cl)cn4)C3)n(C)c(=O)c2c1 (stereo in doubt) [Compound 587] :: ≥ 5 µM

====

Test system: SKBR3 (PI3Kα-Wild Type) cell line
PROCEDURE_SUMMARY: HTRF phospho-AKT(S473) cell assay in SKBR3 cells
Format: cell-based, human
CONDITION: Homo sapiens, SK-BR-3; SKBR3 (PI3Kα-Wild Type) cells, HTRF phospho-AKT(S473), 2 hours compound incubation, PDGF-BB stimulated
pIC50: −log10 of the molar value.
QUANTITY_MEASURED: pIC50

1) Cc1cc([C@@H](C)Nc2ccc(Cl)nc2C(=O)NS(C)(=O)=O)c2nc(N3Cc4cn(CCO)nc4C3)n(C)c(=O)c2c1 :: 5.30 to 6.00
2) Cc1cc([C@@H](C)Nc2ccc(Cl)nc2C(=O)NS(C)(=O)=O)c2nc(N3CCC[C@H](Oc4cnccn4)C3)n(C)c(=O)c2c1 :: ≤ 5.30
3) Cc1cc([C@@H](C)Nc2ccc(Cl)nc2C(=O)NS(C)(=O)=O)c2nc(NCC3(C(F)(F)F)CC3)n(C)c(=O)c2c1 :: 5.30 to 6.00
4) C[C@@H](Nc1ccc(Cl)nc1C(=O)NS(C)(=O)=O)c1cc(F)cc2c(=O)n(C)c(N3CC[C@H](Oc4cnn(C)c4)C3)nc12 :: 5.30 to 6.00
5) Cc1cc([C@@H](C)Nc2ccc(Cl)nc2C(=O)NS(C)(=O)=O)c2nc(N3C[C@H]4C[C@@H](c5ccn(C)n5)[C@@H]3C4)n(C)c(=O)c2c1 :: ≤ 5.30
6) Cc1cc([C@@H](C)Nc2ccc(Cl)nc2C(=O)NS(C)(=O)=O)c2nc(N3Cc4cnn(CC5CC5)c4C3)n(C)c(=O)c2c1 :: 5.30 to 6.00
7) Cc1cc([C@@H](C)Nc2ccc(Cl)nc2C(=O)NS(C)(=O)=O)c2nc(-c3cnc(C)s3)n(C)c(=O)c2c1 :: 5.30 to 6.00
8) Cc1cc([C@@H](C)Nc2ccc(Cl)nc2C(=O)NS(C)(=O)=O)c2nc(N3CCC[C@H](C#N)C3)n(C)c(=O)c2c1 :: 5.30 to 6.00
9) CCn1c(N2CCC(c3nn(C)cc3F)CC2)nc2c([C@@H](C)Nc3ccc(Cl)nc3C(=O)NS(C)(=O)=O)cc(C)cc2c1=O :: ≤ 5.30
10) Cc1cc([C@@H](C)Nc2ccc(Cl)nc2C(=O)NS(C)(=O)=O)c2nc(N3CCC(n4cc(-c5cccnc5)cn4)CC3)n(C)c(=O)c2c1 :: 5.30 to 6.00
11) Cc1cc([C@@H](C)Nc2ccc(Cl)nc2C(=O)NS(C)(=O)=O)c2nc(-c3ccc(N4CCC(O)CC4)nc3)n(C)c(=O)c2c1 :: 5.30 to 6.00
12) Cc1cc([C@@H](C)Nc2ccc(Cl)nc2C(=O)NS(C)(=O)=O)c2nc(N3C[C@@H]4[C@H](C3)[C@H]4c3ccnc(C)c3)n(C)c(=O)c2c1 :: 5.30 to 6.00

====

The entries below are paired with their reported IC50.
Test system: SKBR3 (PI3Kα-Wild Type) cell line
PROCEDURE_SUMMARY: HTRF phospho-AKT(S473) cell assay in SKBR3 cells
Type: cell-based, human
CONDITION: Homo sapiens, SK-BR-3; HTRF phospho-AKT(S473), SKBR3 (PI3Kα-Wild Type) cells, 2 hours compound incubation, PDGF-BB stimulated
QUANTITY_MEASURED: IC50

1) Cc1cc([C@@H](C)Nc2ccc(Cl)nc2C(=O)NS(C)(=O)=O)c2nc(N3CCN(c4nccnc4C)CC3)n(C)c(=O)c2c1 [Compound 553] :: 1 to 5 µM
2) Cc1cc([C@@H](C)Nc2ccc(Cl)nc2C(=O)NS(C)(=O)=O)c2nc(-c3ccc4c(cnn4C)c3)n(C)c(=O)c2c1 [Compound 774] :: 0.5 to 1 µM
3) Cc1cc([C@@H](C)Nc2ccc(Cl)nc2C(=O)NS(C)(=O)=O)c2nc(N3CCN(c4ccnc(C(F)(F)F)n4)CC3)n(C)c(=O)c2c1 [Compound 589] :: ≥ 5 µM
4) COc1cnc([C@H]2[C@@H]3CN(c4nc5c([C@@H](C)Nc6ccc(Cl)nc6C(=O)NS(C)(=O)=O)cc(C)cc5c(=O)n4C)C[C@@H]32)cn1 [Compound 641] :: ≥ 5 µM
5) Cc1cc([C@@H](C)Nc2ccc(Cl)nc2C(=O)NS(C)(=O)=O)c2nc(C3CCCN(c4ncc(F)cn4)C3)n(C)c(=O)c2c1 (mixture of isomers) [Compound 748] :: ≥ 5 µM
6) Cc1cc([C@@H](C)Nc2ccc(Cl)nc2C(=O)NS(C)(=O)=O)c2nc(-c3ccc4cn(C)nc4c3)n(C)c(=O)c2c1 [Compound 835] :: 1 to 5 µM

====

IC50 overview
TEST_TARGET: PI3Kα H1047R (Homo sapiens, UniProt P42336, H1047R)
Sequence (P42336 whole entry H1047R): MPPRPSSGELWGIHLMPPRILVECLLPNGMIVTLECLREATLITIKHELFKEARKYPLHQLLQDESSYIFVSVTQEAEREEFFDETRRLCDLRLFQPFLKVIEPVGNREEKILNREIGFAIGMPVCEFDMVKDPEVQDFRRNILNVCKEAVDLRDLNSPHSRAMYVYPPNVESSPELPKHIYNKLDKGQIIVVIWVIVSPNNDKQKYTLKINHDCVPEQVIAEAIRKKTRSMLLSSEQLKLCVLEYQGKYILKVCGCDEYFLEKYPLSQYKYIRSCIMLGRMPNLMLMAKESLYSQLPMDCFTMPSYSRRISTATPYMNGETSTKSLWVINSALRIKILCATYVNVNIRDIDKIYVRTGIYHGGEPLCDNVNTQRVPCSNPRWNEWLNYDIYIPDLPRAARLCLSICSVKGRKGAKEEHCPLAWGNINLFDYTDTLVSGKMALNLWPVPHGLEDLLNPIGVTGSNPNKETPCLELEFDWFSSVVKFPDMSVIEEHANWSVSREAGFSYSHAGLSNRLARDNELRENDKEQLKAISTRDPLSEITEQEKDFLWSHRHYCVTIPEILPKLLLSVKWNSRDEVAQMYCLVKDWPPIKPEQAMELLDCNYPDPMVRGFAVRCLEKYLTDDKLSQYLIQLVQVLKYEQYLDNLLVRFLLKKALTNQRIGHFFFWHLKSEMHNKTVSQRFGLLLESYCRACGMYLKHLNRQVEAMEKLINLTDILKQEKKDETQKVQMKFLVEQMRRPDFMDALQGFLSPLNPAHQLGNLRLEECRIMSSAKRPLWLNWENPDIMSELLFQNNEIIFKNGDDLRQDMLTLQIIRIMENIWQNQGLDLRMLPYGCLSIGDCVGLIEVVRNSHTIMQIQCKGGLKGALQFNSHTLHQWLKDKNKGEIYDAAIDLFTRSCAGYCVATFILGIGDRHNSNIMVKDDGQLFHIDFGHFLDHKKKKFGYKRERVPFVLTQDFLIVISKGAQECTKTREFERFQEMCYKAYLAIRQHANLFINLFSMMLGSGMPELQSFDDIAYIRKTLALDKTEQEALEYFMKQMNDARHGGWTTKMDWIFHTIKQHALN
Sequence (P27986 2-724 partner): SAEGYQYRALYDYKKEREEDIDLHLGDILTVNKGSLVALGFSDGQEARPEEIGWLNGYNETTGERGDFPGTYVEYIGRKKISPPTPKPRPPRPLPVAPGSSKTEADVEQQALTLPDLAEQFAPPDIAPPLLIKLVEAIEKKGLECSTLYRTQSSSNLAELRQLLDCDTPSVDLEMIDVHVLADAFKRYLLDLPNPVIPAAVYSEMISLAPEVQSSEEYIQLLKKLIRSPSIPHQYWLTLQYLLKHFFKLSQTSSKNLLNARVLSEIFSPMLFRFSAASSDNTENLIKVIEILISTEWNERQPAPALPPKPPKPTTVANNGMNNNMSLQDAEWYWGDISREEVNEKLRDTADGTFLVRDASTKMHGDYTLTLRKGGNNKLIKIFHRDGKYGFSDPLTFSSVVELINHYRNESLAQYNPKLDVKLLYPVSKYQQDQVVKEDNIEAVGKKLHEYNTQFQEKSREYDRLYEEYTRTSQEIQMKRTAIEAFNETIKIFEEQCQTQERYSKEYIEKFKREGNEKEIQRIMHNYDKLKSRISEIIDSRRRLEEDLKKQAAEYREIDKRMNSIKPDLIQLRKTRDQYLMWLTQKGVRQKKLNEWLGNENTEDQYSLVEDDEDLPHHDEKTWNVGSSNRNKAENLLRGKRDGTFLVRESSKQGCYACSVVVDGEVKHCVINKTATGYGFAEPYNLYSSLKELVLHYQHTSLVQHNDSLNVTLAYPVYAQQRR
PROCEDURE_SUMMARY: PI3Kα H1047R enzyme assay (Transcreener ADP2 TR-FRET Red Assay)
CONDITION: purified recombinant full-length protein; 2 hours pre-incubation with compound
Method: Activity against PI3Kα and PI3Kα H1047R enzymes were determined in biochemical assays using purified recombinant full-length proteins with the Transcreener ADP^2 TR-FRET Red Assay from Bellbrook Labs. (Catalogue number 3011-10K). Test compounds were dissolved in DMSO and were tested in 11 point 1:3 serial dilutions, typical final concentration range from 50,000 nM to 0.85 nM. […] The plates were read using a multimode reader and the emission ratio of 665 nm to 615 nm was determined. […]
QUANTITY_MEASURED: IC50

1. CCn1ncc2c1CN(c1nc3c([C@@H](C)Nc4ccc(Cl)nc4C(=O)NS(C)(=O)=O)cc(C)cc3c(=O)n1C)C2 [Compound 45] :: 0.1 to 0.25 µM
2. Cc1cc([C@@H](C)Nc2ccc(Cl)nc2C(=O)NS(C)(=O)=O)c2nc(N3Cc4cnn(CC(F)(F)F)c4C3)n(C)c(=O)c2c1 [Compound 53] :: 0.1 to 0.25 µM
3. Cc1cc([C@@H](C)Nc2ccc(Cl)nc2C(=O)NS(C)(=O)=O)c2nc(C3CCCCC3)n(C)c(=O)c2c1 [Compound 92] :: < 0.1 µM
4. C[C@@H](Nc1ccc(Cl)[nH]c1=O)c1cc(F)cc2c(=O)n(C)c(N3CCOCC3)nc12 [Compound 101] :: 0.1 to 0.25 µM
5. C[C@@H](Nc1ccc(Cl)[nH]c1=O)c1cc(F)cc2c(=O)n(C)c(N3Cc4cnn(C)c4C3)nc12 [Compound 100] :: < 0.1 µM
6. Cc1cc([C@@H](C)Nc2ccc(Cl)nc2C(=O)NS(C)(=O)=O)c2nc(N3Cc4cnn(C)c4C3)n(C)c(=O)c2c1 [Compound 4] :: 0.25 to 0.5 µM
7. Cc1cc([C@@H](C)Nc2ccc(Cl)nc2C(=O)NS(C)(=O)=O)c2nc(OCC3CC3)n(C)c(=O)c2c1 [Compound 51] :: < 0.1 µM
8. Cc1ccc(N[C@H](C)c2cccc3c(=O)n(C)c(N4Cc5ccc(F)cc5C4)nc23)c(C(=O)NS(C)(=O)=O)n1 [Compound 2] :: ≥ 1 µM
9. Cc1cc([C@@H](C)Nc2ccc(Cl)nc2S(N)(=O)=O)c2nc(N3Cc4ccc(F)cc4C3)n(C)c(=O)c2c1 [Compound 76] :: < 0.1 µM
10. Cc1cc([C@H](C)Nc2cn(C)nc2C(=O)NS(C)(=O)=O)c2nc(N3Cc4ccc(F)cc4C3)n(C)c(=O)c2c1 (single isomer, unassigned) [Compound 107] :: ≥ 1 µM
11. CC(=O)NS(=O)(=O)c1nc(Cl)ccc1N[C@H](C)c1cc(C)cc2c(=O)n(C)c(N3CCC(F)(F)CC3)nc12 [Compound 78] :: 0.5 to 1 µM
12. Cc1cc2c(=O)n(C)c(N3Cc4ccc(F)cc4C3)nc2c([C@@H](C)Nc2ccc(Cl)nc2C(=O)NS(C)(=O)=O)n1 [Compound 72] :: 0.1 to 0.25 µM
13. Cc1cc([C@@H](C)Nc2ccc(Cl)nc2C(=O)NS(C)(=O)=O)c2nc(NC3CCC3)n(C)c(=O)c2c1 [Compound 10] :: 0.25 to 0.5 µM
14. CCC(=O)NS(=O)(=O)c1nc(Cl)ccc1N[C@H](C)c1cc(C)cc2c(=O)n(C)c(N3Cc4ccc(F)cc4C3)nc12 [Compound 81] :: < 0.1 µM
15. Cc1cc([C@@H](C)Nc2ccc(Cl)nc2C(=O)NS(C)(=O)=O)c2nc(NCC3CC(F)(F)C3)n(C)c(=O)c2c1 [Compound 20] :: ≥ 1 µM
16. Cc1cc([C@@H](C)Nc2ccc(Cl)nc2C(=O)NS(C)(=O)=O)c2nc(NC(C)(C)C)n(C)c(=O)c2c1 [Compound 7] :: ≥ 1 µM
17. CC(=O)NS(=O)(=O)c1nc(Cl)ccc1N[C@H](C)c1cc(F)cc2c(=O)n(C)c(N3CCC(F)(F)CC3)nc12 [Compound 77] :: ≥ 1 µM
18. C[C@@H](Nc1ccc(Cl)nc1C(=O)NS(C)(=O)=O)c1cc(F)cc2c(=O)n(C)c(N3Cc4cn(C)nc4C3)nc12 [Compound 37] :: 0.25 to 0.5 µM
19. Cc1cc([C@@H](C)Nc2ccc(Cl)nc2C(=O)NS(C)(=O)=O)c2nc(N3Cc4cnn(CC5CC5)c4C3)n(C)c(=O)c2c1 [Compound 47] :: < 0.1 µM
20. Cc1cc([C@@H](C)Nc2ccc(C)[nH]c2=O)c2nc(N3Cc4ccc(F)cc4C3)n(C)c(=O)c2c1 [Compound 97] :: ≥ 1 µM
21. Cc1cc([C@@H](C)Nc2ccc(Cl)cc2C(=O)NS(C)(=O)=O)c2nc(N3Cc4ccc(F)cc4C3)n(C)c(=O)c2c1 [Compound 64] :: ≥ 1 µM
22. Cc1cc([C@@H](C)Nc2ccc(Cl)nc2C(=O)NS(C)(=O)=O)c2nc(N3CC4(C3)CC(F)(F)C4)n(C)c(=O)c2c1 [Compound 9] :: 0.5 to 1 µM
23. Cc1cc([C@@H](C)Nc2ccc(Cl)nc2C(=O)NS(C)(=O)=O)c2nc(N3CCC(F)(F)C[C@@H]3C)n(C)c(=O)c2c1 (single isomer, unassigned) [Compound 42] :: 0.5 to 1 µM
24. Cc1cc([C@@H](C)Nc2cccnc2C(=O)NS(C)(=O)=O)c2nc(N3Cc4ccc(F)cc4C3)n(C)c(=O)c2c1 [Compound 58] :: ≥ 1 µM
25. COc1ccc(N[C@H](C)c2cc(C)cc3c(=O)n(C)c(N4Cc5ccc(F)cc5C4)nc23)c(C(=O)NS(C)(=O)=O)n1 [Compound 65] :: ≥ 1 µM
26. C[C@@H](Nc1ccc(Cl)nc1C(=O)NS(C)(=O)=O)c1cc(F)cc2c(=O)n(C)c(N3Cc4cnn(C)c4C3)nc12 [Compound 28] :: 0.5 to 1 µM
